Test: RP, 50 × 2.1 mm, 1.7 µm, 0.5 mL/min, estimated dead time 0.22 min; A: 98% water + 2% acetonitrile + 0.1% formic acid, pH 3; B: 2% water + 98% acetonitrile + 0.1% formic acid, pH 3; gradient (min/%B) 0/0 0.5/0 4/60 8/100 9/100 9.2/0 10/0
Settings: stereoisomer not certain
recordedMetric: LC retention time (min)

// solved cases for LC retention time follow
molecule	recordedMetric	numericValue
NC(N)=NCCC[C@H](NCCC(=O)O)C(=O)O	LC retention time	4.28
CCCCCC=CCC=CCCCCCCCC(=O)OC(CC(=O)[O-])C[N+](C)(C)C (stereo not drawn)	LC retention time	5.98
CC(CCC(=O)NCC(=O)O)C1CCC2C3C(O)CC4CC(O)CCC4(C)C3CC(O)C12C (stereo not drawn)	LC retention time	4.3

P. C=CC1=C(C)C(=O)N=C1C=c1[nH]c(=Cc2[nH]c(CC3NC(=O)C(C=C)=C3C)c(C)c2CCC(=O)O)c(CCC(=O)O)c1C (stereo not drawn) [15,16-dihydrobiliverdin]
Q. CC(CCC(=O)O)C1CCC2C3CC(O)C4CC(O)CCC4(C)C3CCC12C (stereo not drawn)
*Q* Which of the two gives a bigger number for LC retention time: P or Q ? Reply briefly: the label of your chosen item.
*A* P
(P: 7.42 min, Q: 4.78 min)
